procedure text: Solubility pH 7.4
Format: physicochemical
condition set: pH 7.4, aqueous buffer
# label = bin(measured solubility), where bins are range 1: < 60 µg/mL; range 2: ≥ 60 µg/mL and < 200 µg/mL; range 3: ≥ 200 µg/mL

Example results:
# molecule, category
rows = [
    ("Cn1cc(C(=O)C2CCN(C(=O)CCCc3nn4cc(F)cc4c(=O)[nH]3)CC2)cn1", "range 1"),
    ("COc1ccc(C(=O)C2CCN(C(=O)CCCc3nc4c(cnn4C)c(=O)[nH]3)CC2)cn1", "range 3"),
    ("COc1ccc(C(=O)C2CCN(C(=O)CCCc3nc4c(c(=O)[nH]3)COCC4)CC2)cc1C", "range 3"),
]

Which band does Cc1ccc2c(=O)[nH]c(CCCC(=O)N3CCC(C(=O)c4cnn(C)c4)CC3)nn12 fall in? range 3

Category lookup for the molecule COc1ccc(C(=O)C2CCN(C(=O)CCCc3nc4c(c(=O)[nH]3)COCC4)CC2)cc1 range 3

Exam item: assign COc1ccc(C(=O)C2CCN(C(=O)CCCc3nc4c(F)cc(F)cc4c(=O)[nH]3)CC2)cc1 [Compound A5, reference compound] to the correct category. range 1

Textbook exercise: identify the category of the molecule given here, CCn1cc(C(=O)C2CCN(C(=O)CCCc3nn4cccc4c(=O)[nH]3)CC2)cn1 , according to its measured value. range 3

Values compiled from patent US9809598B2.
